Attribution: patent US10407467B2

# MIC K. pneumoniae CCUG-59348 annotations
# Test system: Klebsiella pneumoniae
# MEASUREMENT_DESCRIPTION: MIC, compound in combination with a second agent (broth microdilution)
# Format: cell-based
# EXPERIMENTAL_SETUP: 1:1 (wt:wt) combination with Rifampicin; MIC = total drug concentration; strain CCUG-59348
# Description: To evaluate the potency and spectrum of the compounds both alone and in combination with another agent, susceptibility testing was performed against up to four strains of each of the four Gram negative pathogens, Escherichia coli, Pseudomonas aeruginosa, Klebsiella pneumoniae and Acinetobacter baumannii. Ratios of components in a combination, such as 1:1, refers to a weight to weight ratio. […]
Counter-ions that a name gives are not always drawn. Numbered stars: 1 amine (or outer) side, 2 acyl side, 3 side chain; on linkers, the order of the positions; unused ones are H or OH. Bridge positions count the residues as written; N and C are the ends. Square brackets hold non-standard residues; d marks the D form. Peptide text beside a SMILES is read from it. * marks the point of attachment. ξ: configuration not given here. Achc(trans-4) = O=C([C@H]1CC[C@H](N[*:1])CC1)[*:2]; X25 = CC(O)[C@@H](C(=O)[*:2])N(CCC1(N)CCCCC1)[*:1]; Thr(3ξ) = CC(O)[C@H](N)C(=O)O; X9 = CC(C)[C@H](N)CCC(=O)*; 4Abz = Nc1ccc(C(=O)O)cc1; X10 = NC1(CC(=O)*)CCCCC1; Dab = NCC[C@H](N)C(=O)O
Express it in micrograms/mL; write the number only.

These solved cases illustrate the format of a correct answer.
Endpoint output: MIC K. pneumoniae CCUG-59348 of CC(C)C[C@@H]1NC(=O)[C@@H](Cc2ccccc2)NC(=O)[C@H](CCN)NC(=O)[C@@H](NC(=O)[C@H](CCN)NC(=O)[C@@H](NCCC2(N)CCCCC2)C(C)O)CCNC(=O)[C@H](C(C)O)NC(=O)[C@H](CCN)NC(=O)[C@H](CCN)NC1=O (stereo partly drawn) [Example 49] (H-[X25][Dab][Dab][Dab][dF]L[Dab][Dab][Thr(3ξ)]; lactam 3-C) . Value? 8

Endpoint output: MIC K. pneumoniae CCUG-59348 of CC(C)C[C@@H]1NC(=O)[C@@H](Cc2ccccc2)NC(=O)[C@H](CCN)NC(=O)[C@@H](NC(=O)[C@H](CCN)NC(=O)[C@@H](NC(=O)CC2(N)CCCCC2)C(C)O)CCNC(=O)[C@H](C(C)O)NC(=O)[C@H](CCN)NC(=O)[C@H](CCN)NC1=O (stereo partly drawn) [Example 42, TFA salt] (X10-[Thr(3ξ)][Dab][Dab][Dab][dF]L[Dab][Dab][Thr(3ξ)]; lactam 3-C) . Value? 4

Endpoint output: MIC K. pneumoniae CCUG-59348 of CC(C)C[C@@H]1NC(=O)[C@@H](Cc2ccccc2)NC(=O)[C@H](CCN)NC(=O)[C@@H](NC(=O)[C@H](CCN)NC(=O)[C@@H](NC(=O)CC[C@@H](N)C(C)C)C(C)O)CCNC(=O)[C@H](C(C)O)NC(=O)[C@H](CCN)NC(=O)[C@H](CCN)NC1=O (stereo partly drawn) [Example 22] (X9-[Thr(3ξ)][Dab][Dab][Dab][dF]L[Dab][Dab][Thr(3ξ)]; lactam 3-C) . Value? 4

Endpoint output: MIC K. pneumoniae CCUG-59348 of CC(C)C[C@@H]1NC(=O)[C@@H](CC(C)C)NC(=O)[C@H](CCN)NC(=O)[C@@H](NC(=O)[C@H](CCN)NC(=O)[C@@H](NC(=O)C(O)C2CCCCC2)C(C)O)CCNC(=O)[C@H](C(C)O)NC(=O)[C@H](CCN)NC(=O)[C@H](CCN)NC1=O (single isomer, unassigned; isomer 1) [Example 31] . Value? 2

Endpoint output: MIC K. pneumoniae CCUG-59348 of CC(C)C[C@@H]1NC(=O)[C@@H](Cc2ccccc2)NC(=O)[C@H](CCN)NC(=O)[C@@H](NC(=O)[C@H](CCN)NC(=O)[C@@H](NC(=O)[C@H]2CC[C@H](N)CC2)[C@@H](C)O)CCNC(=O)[C@H]([C@@H](C)O)NC(=O)[C@H](CCN)NC(=O)[C@H](CCN)NC1=O [Example 17] (H-[Achc(trans-4)]T[Dab][Dab][Dab][dF]L[Dab][Dab]T; lactam 4-C) . Value? 2

Kindly review the next molecule as well.
Endpoint output: MIC K. pneumoniae CCUG-59348 of CC(C)C[C@@H]1NC(=O)[C@@H](Cc2ccccc2)NC(=O)[C@H](CCN)NC(=O)[C@@H](NC(=O)[C@H](CCN)NC(=O)[C@@H](NC(=O)c2ccc(N)cc2)C(C)O)CCNC(=O)[C@H](C(C)O)NC(=O)[C@H](CCN)NC(=O)[C@H](CCN)NC1=O (stereo partly drawn) [Example 5, 4-Aminobenzoyl polymyxin B nonapeptide] (H-[4Abz][Thr(3ξ)][Dab][Dab][Dab][dF]L[Dab][Dab][Thr(3ξ)]; lactam 4-C) . Value? 2
